# study-system: Serine/threonine-protein kinase mTOR (Homo sapiens)
measured-parameter: pIC50
Hey, just a heads up that pIC50 is the negative log base 10 of the concentration in molar.

Solved entries:
CC(=O)Nc1cccc(Nc2nc3ccccc3n2-c2nc(C)nc(N)n2)c1: 6.54
Cc1nc(N)nc(-n2c(Nc3ccn[nH]3)nc3ccccc32)n1: 7.57
Cc1nc(N)nc(-n2c(Nc3ccn(C(F)F)n3)nc3ccccc32)n1: 6.47

Quickly give me recorded pIC50 for Cc1nc(N)nc(-n2c(Nc3ccc4cn[nH]c4c3)nc3ccccc32)n1
7.57

Quickly give me recorded pIC50 for C#CCNc1nc(C)nc(-n2c(Nc3ccn[nH]3)nc3ccccc32)n1
7.10

Quickly give me recorded pIC50 for Cc1nc(NCC#N)nc(-n2c(Nc3ccn[nH]3)nc3ccccc32)n1
7.51

----------
# run-description: Solubility of compound in 0.01 N HCL
# Type: physicochemical
# condition-parameters: 0.01 N HCl; read-out: solubility
measured-parameter: solubility (µg/mL)
Kindly provide the numeric value in µg/mL only, without the unit symbol.

Quickly give me recorded solubility for CNc1nc(C)nc(-n2c(Nc3cc[nH]n3)nc3ccccc32)n1
156

----------
# Test system: NCI-H2009
# run-description: Antiproliferative activity against human NCI-H2009 harboring KRAS/RB/p53 gene mutation/amplification at 1 uM after 72 hrs by Ambit assay in presence of 10% serum
# Type: functional, cell-based
# condition-parameters: NCI-H2009, 72 h
measured-parameter: pIC50
Hey, just a heads up that pIC50 is the negative log base 10 of the concentration in molar.

Quickly give me recorded pIC50 for Cc1nc(NCC#N)nc(-n2c(Nc3cc[nH]n3)nc3ccccc32)n1
6.38

----------
# Test system: MDA-MB-231
# run-description: Antiproliferative activity against human MDA-MB-231 harboring KRAS/BRAF/p53 gene mutation/amplification at 1 uM after 72 hrs by Ambit assay in presence of 10% serum
# Type: functional, cell-based
# condition-parameters: MDA-MB-231, 72 h
measured-parameter: IC50 (µM)
Kindly provide the numeric value in µM only, without the unit symbol.

Quickly give me recorded IC50 for Cc1nc(NCC#N)nc(-n2c(Nc3cc[nH]n3)nc3ccccc32)n1
0.27

----------
# study-system: Phosphatidylinositol 4,5-bisphosphate 3-kinase catalytic subunit gamma isoform (Homo sapiens, UniProt P48736)
# Sequence (P48736 whole entry, canonical isoform): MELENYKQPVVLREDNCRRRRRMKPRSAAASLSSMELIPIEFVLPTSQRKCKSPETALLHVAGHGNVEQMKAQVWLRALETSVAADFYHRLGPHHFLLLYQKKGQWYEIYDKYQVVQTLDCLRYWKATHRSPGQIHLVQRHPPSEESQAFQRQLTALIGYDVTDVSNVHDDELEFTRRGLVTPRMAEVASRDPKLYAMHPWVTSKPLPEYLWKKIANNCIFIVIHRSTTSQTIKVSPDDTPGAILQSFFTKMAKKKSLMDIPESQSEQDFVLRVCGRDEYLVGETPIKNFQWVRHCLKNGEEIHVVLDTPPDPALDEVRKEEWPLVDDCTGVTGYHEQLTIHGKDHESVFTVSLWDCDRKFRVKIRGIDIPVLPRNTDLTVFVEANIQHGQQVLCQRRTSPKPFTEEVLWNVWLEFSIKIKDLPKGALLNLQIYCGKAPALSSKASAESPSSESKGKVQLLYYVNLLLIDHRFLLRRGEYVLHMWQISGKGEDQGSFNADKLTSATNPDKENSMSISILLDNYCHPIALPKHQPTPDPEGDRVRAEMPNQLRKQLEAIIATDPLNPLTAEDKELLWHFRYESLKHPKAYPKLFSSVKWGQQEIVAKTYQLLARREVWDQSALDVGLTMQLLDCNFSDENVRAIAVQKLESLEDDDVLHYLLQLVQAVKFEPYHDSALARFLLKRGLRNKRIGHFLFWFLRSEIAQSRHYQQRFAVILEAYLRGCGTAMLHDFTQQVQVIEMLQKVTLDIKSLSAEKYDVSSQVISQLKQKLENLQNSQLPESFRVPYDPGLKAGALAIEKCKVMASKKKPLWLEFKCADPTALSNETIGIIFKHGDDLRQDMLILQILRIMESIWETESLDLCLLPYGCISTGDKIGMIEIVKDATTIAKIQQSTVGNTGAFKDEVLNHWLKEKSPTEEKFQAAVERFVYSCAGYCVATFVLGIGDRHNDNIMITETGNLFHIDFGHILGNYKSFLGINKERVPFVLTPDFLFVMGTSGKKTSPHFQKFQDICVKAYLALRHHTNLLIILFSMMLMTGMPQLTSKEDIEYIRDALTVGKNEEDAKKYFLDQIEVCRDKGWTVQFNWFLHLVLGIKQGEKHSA
Quick reference: IC50 of the listed items.
Kindly provide the numeric value in nM only, without the unit symbol.

Solved entries:
Cc1nc(N)nc(-n2c(Nc3cccc(C(N)=O)c3)nc3ccccc32)n1: 480
C#CCNc1nc(C)nc(-n2c(Nc3ccn[nH]3)nc3ccccc32)n1: 3700
Cc1nc(NCCC#N)nc(-n2c(Nc3cc[nH]n3)nc3ccccc32)n1: 6200
Cc1nc(N)nc(-n2c(Nc3ccn[nH]3)nc3cc(F)c(F)cc32)n1: 250

--- query ---
Quickly give me recorded IC50 for Cc1nc(N)nc(-n2c(Nc3ccon3)nc3ccccc32)n1
2300

----------
Here we list compounds with their recorded pIC50 when tested on Serine/threonine-protein kinase mTOR (Homo sapiens, UniProt P42345).
Hey, just a heads up that pIC50 is the negative log base 10 of the concentration in molar.

Solved entries:
Cc1nc(N)nc(-n2c(Nc3cn[nH]c3)nc3ccccc32)n1: 6.74
Cc1nc(NCCC#N)nc(-n2c(Nc3cc[nH]n3)nc3ccccc32)n1: 7.09
Cc1nc(N)nc(-n2c(Nc3ccnn3C)nc3ccccc32)n1: 6.27
Cc1nc(N)cc(-n2c(Nc3cccc(O)c3)nc3ccccc32)n1: 7.37
CNC(=O)c1ccc(Nc2nc3ccccc3n2-c2nc(C)nc(N)n2)o1: 6.17

--- query ---
Find the measured pIC50 of CCCc1nc(N)nc(-n2c(Nc3cccc(O)c3)nc3ccccc32)n1 with Serine/threonine-protein kinase mTOR (Homo sapiens, UniProt P42345) as test system.
5.58

----------
# Tested on: CAL-51
# run-description: Antiproliferative activity against human CAL51 harboring PI3K/PTEN gene mutation/amplification at 1 uM after 72 hrs by Ambit assay in presence of 10% serum
# Format: functional, cell-based
# condition-parameters: CAL-51, 72 h
measured-parameter: pIC50
Hey, just a heads up that pIC50 is the negative log base 10 of the concentration in molar.

Quickly give me recorded pIC50 for Cc1nc(NCC#N)nc(-n2c(Nc3cc[nH]n3)nc3ccccc32)n1
6.49

----------
# study-system: Serine/threonine-protein kinase mTOR (Homo sapiens, UniProt P42345)
measured-parameter: IC50 (nM)
Kindly provide the numeric value in nM only, without the unit symbol.

Solved entries:
Cc1nc(NCC#N)nc(-n2c(Nc3ccn[nH]3)nc3ccccc32)n1: 600
Cc1nc(N)nc(-n2c(Nc3ccon3)nc3ccccc32)n1: 3300
COc1nc(NCC#N)nc(-n2c(Nc3cccc(O)c3)nc3ccccc32)n1: 21500
CNC(=O)Nc1ccc(Nc2nc3ccccc3n2-c2nc(C)nc(N)n2)cc1: 340
Cc1nc(NCCC#N)nc(-n2c(Nc3cc[nH]n3)nc3ccccc32)n1: 1300

Quickly give me recorded IC50 for Cc1nc(N)nc(-n2c(Nc3cccc(O)c3)nc3ccccc32)n1
150

Quickly give me recorded IC50 for CC(=O)Nc1cccc(Nc2nc3ccccc3n2-c2nc(C)nc(N)n2)c1
1500

----------
# study-system: Phosphatidylinositol 4,5-bisphosphate 3-kinase catalytic subunit beta isoform (Homo sapiens)
measured-parameter: pIC50
Hey, just a heads up that pIC50 is the negative log base 10 of the concentration in molar.

CC(=O)Nc1cccc(Nc2nc3ccccc3n2-c2nc(C)nc(N)n2)c1: 5.85
Cc1nc(N)nc(-n2c(Nc3cn[nH]c3)nc3ccccc32)n1: 6.00
CC(=O)Nc1ccc(Nc2nc3ccccc3n2-c2nc(C)nc(N)n2)cc1: 6.39
Cc1nc(N)nc(-n2c(Nc3cccc(O)c3)nc3ccccc32)n1: 8.05

Quickly give me recorded pIC50 for Cc1nc(N)nc(-n2c(NC3CCOCC3)nc3ccccc32)n1
5.62

Quickly give me recorded pIC50 for Cc1nc(NCC#N)nc(-n2c(Nc3ccn[nH]3)nc3ccccc32)n1
5.07

Quickly give me recorded pIC50 for Cc1nc(N)nc(-n2c(Nc3ccccc3)nc3ccccc32)n1
6.00

Quickly give me recorded pIC50 for Cc1nc(NCCC#N)nc(-n2c(Nc3cc[nH]n3)nc3ccccc32)n1
4.81

Quickly give me recorded pIC50 for Cc1nc(N)nc(-n2c(Nc3ccn(C(F)F)n3)nc3ccccc32)n1
4.65

Quickly give me recorded pIC50 for Cc1nc(N)nc(-n2c(Nc3ccc4cc[nH]c4c3)nc3ccccc32)n1
6.00

Quickly give me recorded pIC50 for Cc1nc(N)nc(-n2c(Nc3cc(O)cc(O)c3)nc3ccccc32)n1
9.70

----------
# study-system: Phosphatidylinositol 4,5-bisphosphate 3-kinase catalytic subunit beta isoform (Homo sapiens, UniProt P42338)
# Sequence (P42338 whole entry, canonical isoform): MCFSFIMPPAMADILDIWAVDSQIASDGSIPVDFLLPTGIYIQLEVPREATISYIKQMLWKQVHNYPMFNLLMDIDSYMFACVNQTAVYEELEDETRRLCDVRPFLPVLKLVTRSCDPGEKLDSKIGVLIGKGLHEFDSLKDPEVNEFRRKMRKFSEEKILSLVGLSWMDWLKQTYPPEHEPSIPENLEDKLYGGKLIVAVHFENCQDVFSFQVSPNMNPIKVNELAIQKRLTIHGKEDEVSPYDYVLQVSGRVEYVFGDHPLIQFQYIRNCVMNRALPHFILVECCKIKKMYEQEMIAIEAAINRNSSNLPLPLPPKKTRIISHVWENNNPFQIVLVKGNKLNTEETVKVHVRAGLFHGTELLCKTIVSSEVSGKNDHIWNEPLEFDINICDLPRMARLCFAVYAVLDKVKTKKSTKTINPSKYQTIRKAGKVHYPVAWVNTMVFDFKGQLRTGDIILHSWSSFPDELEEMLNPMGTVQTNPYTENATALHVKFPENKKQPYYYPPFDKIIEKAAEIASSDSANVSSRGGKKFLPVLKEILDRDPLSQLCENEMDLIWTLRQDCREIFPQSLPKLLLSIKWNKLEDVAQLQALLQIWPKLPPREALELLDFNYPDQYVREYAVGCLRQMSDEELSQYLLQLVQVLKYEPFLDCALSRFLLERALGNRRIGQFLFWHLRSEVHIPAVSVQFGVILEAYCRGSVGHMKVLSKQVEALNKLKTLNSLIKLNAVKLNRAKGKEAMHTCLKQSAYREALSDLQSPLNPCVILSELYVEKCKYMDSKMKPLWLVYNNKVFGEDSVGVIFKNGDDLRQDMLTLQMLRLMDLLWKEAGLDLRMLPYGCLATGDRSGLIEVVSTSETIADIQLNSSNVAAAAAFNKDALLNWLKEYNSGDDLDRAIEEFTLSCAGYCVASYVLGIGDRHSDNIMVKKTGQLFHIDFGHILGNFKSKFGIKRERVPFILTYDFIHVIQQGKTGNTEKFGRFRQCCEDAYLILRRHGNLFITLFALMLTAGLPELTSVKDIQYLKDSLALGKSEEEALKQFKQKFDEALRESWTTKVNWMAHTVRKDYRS
pIC50: −log10 of the molar value.
Binary call on pIC50: t from 6 upward, f beneath that.

CNC(=O)Nc1ccc(Nc2nc3ccccc3n2-c2nc(C)nc(N)n2)cc1: t
Cc1nc(N)nc(-n2c(Nc3ccc4cn[nH]c4c3)nc3ccccc32)n1: t
CNc1nc(C)nc(-n2c(Nc3cc[nH]n3)nc3ccccc32)n1: f
Cc1nc(N)nc(-n2c(Nc3ccn(C)n3)nc3ccccc32)n1: f
Cc1nc(N)nc(-n2c(Nc3n[nH]c4ccccc34)nc3ccccc32)n1: t
C#CCNc1nc(C)nc(-n2c(Nc3ccn[nH]3)nc3ccccc32)n1: f
Cc1nc(N)nc(-n2c(Nc3ccnn3C)nc3ccccc32)n1: f
Cc1nc(N)nc(-n2c(Nc3ccon3)nc3ccccc32)n1: f

Turning now to a further molecule:
Hi team, for CNC(=O)c1ccc(Nc2nc3ccccc3n2-c2nc(C)nc(N)n2)o1 , is the recorded pIC50 at or above 6?
f

----------
# run-description: Half life in Sprague-Dawley rat at 5 mg/kg, po
# Format: ADME, organism-based
# Design: dose 5 mg/kg, route oral
# condition-parameters: in vivo
measured-parameter: half-life (min)
Kindly provide the numeric value in min only, without the unit symbol.

Quickly give me recorded half-life for Cc1nc(NCCC#N)nc(-n2c(Nc3cc[nH]n3)nc3ccccc32)n1
42

----------
# System: NCI-H82
# run-description: Antiproliferative activity against human NCI-H82 harboring CMYC/RB gene mutation/amplification at 1 uM after 72 hrs by Ambit assay in presence of 10% serum
# Assay type: functional, cell-based
# condition-parameters: NCI-H82, 72 h
measured-parameter: pIC50
Hey, just a heads up that pIC50 is the negative log base 10 of the concentration in molar.

Quickly give me recorded pIC50 for Cc1nc(NCC#N)nc(-n2c(Nc3cc[nH]n3)nc3ccccc32)n1
6.37

----------
# study-system: Phosphatidylinositol 4,5-bisphosphate 3-kinase catalytic subunit alpha isoform (Homo sapiens)
# Sequence (P42336 whole entry, canonical isoform): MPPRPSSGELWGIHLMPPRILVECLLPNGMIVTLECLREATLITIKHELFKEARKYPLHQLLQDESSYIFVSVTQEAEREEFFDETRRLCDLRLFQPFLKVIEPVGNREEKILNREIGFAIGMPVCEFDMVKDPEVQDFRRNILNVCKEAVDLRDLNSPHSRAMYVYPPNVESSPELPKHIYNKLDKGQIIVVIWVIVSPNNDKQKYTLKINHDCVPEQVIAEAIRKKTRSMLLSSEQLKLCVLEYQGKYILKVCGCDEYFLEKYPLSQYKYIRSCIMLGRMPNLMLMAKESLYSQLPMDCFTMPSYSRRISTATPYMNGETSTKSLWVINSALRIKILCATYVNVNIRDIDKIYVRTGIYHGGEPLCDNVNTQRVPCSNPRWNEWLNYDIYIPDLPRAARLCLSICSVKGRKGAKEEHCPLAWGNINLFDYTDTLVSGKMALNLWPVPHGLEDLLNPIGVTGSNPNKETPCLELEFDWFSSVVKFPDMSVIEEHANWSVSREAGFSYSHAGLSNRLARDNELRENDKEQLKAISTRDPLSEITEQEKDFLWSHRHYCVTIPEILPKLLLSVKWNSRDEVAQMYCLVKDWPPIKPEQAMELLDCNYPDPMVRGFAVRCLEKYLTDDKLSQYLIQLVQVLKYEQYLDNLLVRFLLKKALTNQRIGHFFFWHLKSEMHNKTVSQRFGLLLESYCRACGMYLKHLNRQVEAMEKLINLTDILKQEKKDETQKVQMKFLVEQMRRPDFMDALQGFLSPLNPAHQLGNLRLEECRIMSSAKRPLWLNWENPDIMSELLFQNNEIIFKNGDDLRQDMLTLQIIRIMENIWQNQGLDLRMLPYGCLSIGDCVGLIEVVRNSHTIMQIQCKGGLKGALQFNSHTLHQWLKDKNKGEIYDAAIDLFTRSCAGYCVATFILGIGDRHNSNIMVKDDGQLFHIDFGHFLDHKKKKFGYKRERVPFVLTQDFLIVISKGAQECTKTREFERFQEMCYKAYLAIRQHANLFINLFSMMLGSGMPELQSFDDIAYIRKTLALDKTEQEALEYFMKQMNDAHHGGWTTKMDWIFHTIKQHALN
measured-parameter: pIC50
Hey, just a heads up that pIC50 is the negative log base 10 of the concentration in molar.

Cc1nc(NCC#N)nc(-n2c(Nc3ccn[nH]3)nc3ccccc32)n1: 5.21
CNc1ncnc(-n2c(Nc3cccc(O)c3)nc3ccccc32)n1: 6.72

--- query ---
Quickly give me recorded pIC50 for Cc1nc(N)nc(-n2c(Nc3ccn(C)n3)nc3ccccc32)n1
5.21
